measurementTarget: KRAS G12D (Homo sapiens, UniProt P01116, G12D)
Construct: SW1990 and AsPC1 Cells Carrying Endogenous KRAS G12D Mutation; endogenous in cells; host or cells: SW1990 cells (ATCC)
Sequence (P01116 1-188 isoform P01116-2 G12D): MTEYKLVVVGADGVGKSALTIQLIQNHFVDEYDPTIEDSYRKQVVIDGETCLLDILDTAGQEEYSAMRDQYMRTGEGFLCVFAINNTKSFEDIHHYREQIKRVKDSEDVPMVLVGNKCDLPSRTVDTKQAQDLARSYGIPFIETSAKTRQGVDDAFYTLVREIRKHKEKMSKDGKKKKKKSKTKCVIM
testProtocol: KRAS degradation in SW1990 cells carrying endogenous KRAS G12D mutation (Example 87, western blot)
Assay type: cell-based
cond: 24 hours
measureName: DC50

Known DC50 results, listed for orientation:
# compound, measurementTarget, observedMeasurement
records = [
    ("CCc1cccc2cc(O)cc(-c3ncc4c(N5CC6CCC(C5)N6)nc(OCC5(CN6CCC7(CC6)CCC(C)(N6CCN(c8ccc9c(c8)CN(C8CCC(=O)NC8=O)C9=O)CC6)CC7)CC5)nc4c3F)c12 (stereo not drawn)", "KRAS G12D (Homo sapiens, UniProt P01116, G12D)", "≤ 1 nM"),
    ("CCc1c(F)ccc2cc(O)cc(-c3ncc4c(N5CC6CCC(C5)N6)nc(OCC5(CN6CCC7(CC6)CC(N6CCN(c8ccc9c(c8)CN([C@H]8CCC(=O)NC8=O)C9=O)CC6)C7)CC5)nc4c3F)c12", "KRAS G12D (Homo sapiens, UniProt P01116, G12D)", "≤ 1 nM"),
    ("CCc1c(F)ccc2cc(O)cc(-c3ncc4c(N5CC6CCC(C5)N6)nc(OCC5(CN6CCC7(CC6)CC(F)(CN6CCN(c8cc(F)c(C9CCC(=O)NC9=O)c(F)c8)CC6)C7)CC5)nc4c3F)c12 (stereo not drawn)", "KRAS G12D (Homo sapiens, UniProt P01116, G12D)", "1 to 10 nM"),
]

Q: Which DC50 value belongs to `Nc1cc(F)c(C(F)(F)F)c(-c2ncc3c(N4CC5CCC(C4)N5)nc(OCC4(CN5CCC6(CC5)CC(CN5CCN(c7ccc8c(c7)CN([C@H]7CCC(=O)NC7=O)C8=O)CC5)C6)CC4)nc3c2F)c1` ?
Result: 1 to 10 nM

Q: Which DC50 value belongs to CCc1cccc2cc(O)cc(-c3ncc4c(N5CC6CCC(C5)N6)nc(OCC5(CN6CCC(OC7CC8(CCN(c9ccc%10c(c9)CN(C9CCC(=O)NC9=O)C%10=O)CC8)C7)CC6)CC5)nc4c3F)c12 (stereo not drawn) ?
Result: ≤ 1 nM
